Target: T1, human IL-6 (Homo sapiens, UniProt P05231)
T1 construct: host or cells: IL-6 added from outside to murine 7TD1 hybridoma cells
T1 sequence (P05231 30-212): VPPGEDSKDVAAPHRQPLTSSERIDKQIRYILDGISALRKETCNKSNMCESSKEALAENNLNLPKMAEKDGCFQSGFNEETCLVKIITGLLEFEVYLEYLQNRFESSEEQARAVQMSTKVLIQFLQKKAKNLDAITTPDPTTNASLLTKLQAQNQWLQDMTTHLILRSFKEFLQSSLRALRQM
Test: IL-6 neutralizing bioassay, 7TD1 cell proliferation
Format: cell-based
Conditions: Exp 22.06 (7TD1); relative to 68F2
QUANTITY KIND: Rel. Potency

# MOLECULE, NUMBER
measured = [
    ("127E2 (24.06) (antibody, V domains shown) VH: EVQLQESGPGLVKPSQTLSLTCTVSGGSITTRYYAWSWIRQPPGKGLEWIGVIDYDGDTYYSPSLKSRVTISVDTSKNQFSLQLSSVTAEDTAVYYCARDPDVVTGFHYDYWGQGTQVTVSS VL: QSALTQPPSVSGSPGQTVTISCAGANNDIGTYAYVSWYQQPPGTAPKLLIYKVTTRASGVPDRFSGSKSGNTASLTISGLQAEDEADYYCASYRNFNNAVFGGGTHLTVL", 0.58),
    ("129D3 (17.06) (antibody, V domains shown) VH: EVQLQESGPGLVKPSQTLSLTCTVSGGSITSRYYAWSWIRQPPGKGLEWIGVIDYDGDTYYSPSLKSRVSISWDTSKNQFSLKLSSVTPADTAVYYCARDPDVVTGFHYDYWGQGTMVTVSS VL: QSALTQPPSVSGTPGQSVTISCAGANNDIGTYAYVSWYQQLPGTAPKLMIYKVTTRASGIPDRFSGSKSGNTASLTISGLQAEDEADYYCASYRNFNNAVFGTGTKLTVL", 1.02),
    ("128G3 (17.06) (antibody, V domains shown) VH: EVQLQESGPGLVKPSQTLSLTCTVSGGSITTRYYAWSWIRQPPGKGLEWIGVIDYDGDTYYSPSLKSRTTISVDTSKNQFSLKLSSVTPEDTAVYYCARDPDVVTGFHYDYWGQGTMVTVSS VL: QSALTQPPSVSGAPGQTVTISCAGANNDIGTYAYVSWYQQLPGTAPKLLIYKVTTRASGVPDRFSGSKSGNTASLAISGLQAEDEADYYCASYRNFNNAVFGGGTHLTVL", 0.60),
    ("129F2 (17.06) (antibody, V domains shown) VH: EVQLQESGPGLVKPSQTLSLTCTVSGGSITSRYYAWSWIRQPPGKGLEWIGVIDYDGDTYYSPSLKSRVTISWDTSKNQFSLKLSSVTAEDTAVYYCARDPDVVTGFHYDYWGQGTMVTVSS VL: QSALTQPPSVSGTPGQTVTISCAGANNDIGTYAYVSWYQQLPGTAPKLMIYKVTTRASGIPDRFSGSKSGNTASLTISGLQSEDEADYYCASYRNFNNAVFGGGTKLTVL", 1.14),
]

Numbers sourced from patent US11827701B2.
